B1: TPR t1 (parent)
chain: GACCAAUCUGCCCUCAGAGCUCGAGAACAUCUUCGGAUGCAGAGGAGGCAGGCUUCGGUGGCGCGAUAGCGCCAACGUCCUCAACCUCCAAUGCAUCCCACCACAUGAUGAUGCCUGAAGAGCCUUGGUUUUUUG

- Variants of: B1
- Test protocol: polymerase ribozyme fitness, log enrichment relative to wild type (log ratio); higher = more active; in vitro selection for triplet polymerase activity

{"Ordered residues": "GACCAAUCUGCCCUCAGAGCUCGAGAACAUCUUCGGAUGCAGAGGAGGCAGGCUUCGGUGGCGCGAUAGCGCCAACGUCCUCAACCUCCAAUGCAUCCCACCACAUGAUGAUGGCUGAAGAGCCUUAGUUUUUUG [C114G G127A]", "polymerase ribozyme fitness (log ratio)": -4.97}
{"Ordered residues": "GACCAAUCUGCCCUCAGAGCUCGAGAACAUCUUCGGAUGCAGAGGAGGCAGGCUUCGGUGGCGCGUUGGCGCAAACGUCCUAAACCUCCAAUGCAUCCCACCACAUGAUGAUGCCUGAAGAGCCUUGGUUUUUUG [A66U A68G C73A C82A]", "polymerase ribozyme fitness (log ratio)": -4.09}
{"Ordered residues": "GUCCAAUCUGCUCUCAGAGCUCGAGAUCAUCUUCGGAUGCAGAGGAAGCAGGCUUCGGUGGCGCGAUAGCGCCAACGUCCUCAACCUCCAAUGCAUCCCACCACAUGAUGAUGCCUGAAGAGCCUUGGUUUUUUG [A2U C12U A27U G47A]", "polymerase ribozyme fitness (log ratio)": -5.43}
{"Ordered residues": "GACCAAUCUGCCCUCAGAGCUCGAGAACCUCUUCGGAUGCAGAGGAGGCAGGCUUCGGUGACGCGAUAGCGCCAUCGUCCUCAACCUCCAAUGCAUCCCACCACAUGAUGAUGCCUGAAGAGCCUUGGUUUUUUG [A29C G61A A75U]", "polymerase ribozyme fitness (log ratio)": -1.75}
{"Ordered residues": "GACCAAUCUGCCCUCAGAGCUCGAGAACAUCUUCGGAUGCAGAGGAGGUAGGCUUCGGUGGCGCGAUAGCGCCAACGUCCUCAACCUCCAAUGCAUCCCACCACAUGAUGAUGCCUGAAGAGCCUUGCUUUUUUG [C49U G128C]", "polymerase ribozyme fitness (log ratio)": -2.44}
{"Ordered residues": "GACCAAUCUGCCCUCAGAGCUCGAGAACAUCUUAGGAUGCAGAGGAGGCAGGCUUCGGUGGCGCGAUAGCGCCAACGUCCUCAACCUCUAAUGCAUCCCACCACAUGAUGAUGCCUUAAGAGCCUUGGUUUUUUG [C34A C89U G117U]", "polymerase ribozyme fitness (log ratio)": -5.32}
{"Ordered residues": "GACCAGUCUGCCCUCAGAGCUCGAGAACAUCUUCGGAUGCAGAGGAGGCAGGCUUCGGUGGCGCGAUAGAGCCAACGUCCUCAACCUCCAAUGCAUUCCACCACAUGAUGAUGCCUGAAGAGCCUUGGUUUUUUG [A6G C70A C97U]", "polymerase ribozyme fitness (log ratio)": -1.59}
{"Ordered residues": "GACCAAUCUGCCCUCAGAGCUCGAGAACAUCUUCGGAUGCAGAGGAGGCAGGCUUCGGUGGCGCGAUAGCGUAAACGUCCUCAACCUCCAUUGCAUCCCACCACAUGAUGAUGCCUGAAGAGCCUUGGUUCCUUG [C72U C73A A91U U131C U132C]", "polymerase ribozyme fitness (log ratio)": -2.72}
{"Ordered residues": "GACCAAUCUGCCCUCAGAGCUCGAGAACAUCUUCGGAUGCAGAGGAGGCAGGCUUCGGUGGCGCGAUAGCUCCAACGUCCUCAACCUCCAAUGCAUCCCACCACAUGAUGAUGCCUGAAGGGCCAUGGUUUUUUG [G71U A121G U125A]", "polymerase ribozyme fitness (log ratio)": 1.48}
{"Ordered residues": "GACCAAUCUGCCCUCAGAGCUCGAGAACAUCUUCGUAUGCAGAGGAGGCACGCUUCGGUGGCGCGAUAUCGCCAACGUCCUCAACCUCCAAUGCAUCCCACCACAUGAUGAUGCCUGAAGAGCCUUGGUUUUUUG [G36U G51C G69U]", "polymerase ribozyme fitness (log ratio)": -2.55}
{"Ordered residues": "GACCAAUCUGCCCUCAGAGCUCGAGAACAUCUUCGGAUGCAGAGGAGGCAGGCUUCGGUGGGGCGAUAGCGCCAACGUCCUCAACCUCCAAUGCAUCCCACCACAUGAUGAUGCCUGAAGAGCAUUGGUUUUUUG [C62G C124A]", "polymerase ribozyme fitness (log ratio)": -0.74}
{"Ordered residues": "GACCAAUCUGCCCUCAGAGCACGAGAACCUCUUCGGAUGCAGAGGAGGCAGGCUUCGGUGGCGCGAUAGCGCCAACGUCCUCAACCUCCAAUGCAUCCCACCACAUGAUGAUGCCUGAAGAGCCUUGGUUUUUUG [U21A A29C]", "polymerase ribozyme fitness (log ratio)": -3.14}
{"Ordered residues": "GACCAAUCUGCCCUCAGAGCUCGAGAACAUCUUCGGAUGCAGAGGAGGCAGGCUGGGGUGGCGCGAUAGCGCCAACGUCCUCAACCUCCAAUGCAUCCCACCACAUGAUGAUGCCUGAAGAGCCUUGGUUUUUUG [U55G C56G]", "polymerase ribozyme fitness (log ratio)": -1.53}
{"Ordered residues": "GACCAAUCUGCCCUCAGAGCUCGAGAACAUCUUCGGAUGCAGAGGAGGCAGGCUUCGGUGGAGCGAUAGCGCCAACUUCCUCAACCUCCAAUGCAUCCCACCACAUGAUGAUGCGUGAAGAGCCUUGGUUUUUUG [C62A G77U C115G]", "polymerase ribozyme fitness (log ratio)": -2.95}
{"Ordered residues": "GACCAAUCUGCCCUCAGAGCUCGAGAACAUCUUCGGAUGCAGAGGAGGCAGGCUUCGGUGGCGCGAUAGCGCCAACGUCCUCAACCUCCGAUGCAUCCCACCACAUGAUGAUGACUGAAGAGCCUUGGUUUUUUG [A90G C114A]", "polymerase ribozyme fitness (log ratio)": -1.4}
{"Ordered residues": "GACCAAUCUGCCCUCAGAGCUCGAGAACAUCUUCGGAUGCAGAGGAGGCAGGCUUCGGUGGCGCGAUAGCGCCAACGCCCUCAACCUCCAAUGCAUCCCACCACAUGAUGAUGCCUUAAGAGCCUUGCUUUUUUC [U78C G117U G128C G135C]", "polymerase ribozyme fitness (log ratio)": -6.04}
{"Ordered residues": "GACCAAUCUGCCCUCAGAGCUCGGGAACAUCUUCGGAUGCAGAGGAGACAGGCUUCGGUGGCGUGAUAGCGCCAACGUCCCCAACCUCCAAUGCAUCCCACCACAUGUUGAUGCCUGAACAGCCUUGGUUUUUUG [A24G G48A C64U U81C A108U G120C]", "polymerase ribozyme fitness (log ratio)": -6}
{"Ordered residues": "GACCAAUCUGCCCUCAGAGCUCGAGAACAUCUUCGGAUGCAGAGGAGGCAUGCUUCGGUGGCGCGAUAGCGCCAACGGCCUCAACCUCCAAUGCAUCCCACCACAUGAUGACGCCUGAAGAGACUUGGUAUUUUG [G51U U78G U112C C123A U130A]", "polymerase ribozyme fitness (log ratio)": -3.11}
{"Ordered residues": "GACCAAUCAGCCCUCAGAGCUCGAGAACAUGUUCGGAUGCAGAGGAGGCAGGCUUCGGUGGCGCGAUAGCGCCAACGUCCUCCACCUCCAAUGCAUCCCACCACAUCAUGAUGCCUGAAGAGCCUUGGUUUUUUG [U9A C31G A83C G107C]", "polymerase ribozyme fitness (log ratio)": -1.45}
{"Ordered residues": "GACCAAUCUGCCCUCAGAGCUCGAGAACAUCUUCGGAUGCAGAGCAGGCAGGCUUCGAUGGCGCGAUAGCGCCAACGUCCUCAACCUCCAAUGCAUCCCACCACAUGAUGAUGCCUGAAGAGCCUUGGUUUUUUG [G45C G58A]", "polymerase ribozyme fitness (log ratio)": -0.146}
{"Ordered residues": "GACCAAUCUGCACUCAGAGCACGAGAACAUCUUCGGAUGCAGAGGAGGCAGGAUUCGGUGGCGCGAUAGCUCCAACGUCCUCAACCUCCAAUGCAUCUCACCACAUGAUGAUGCCUGAAGAGCCUUGGUUUUUUG [C12A U21A C53A G71U C98U]", "polymerase ribozyme fitness (log ratio)": -4.86}
{"Ordered residues": "GACCAAUCUGCCCUCAGAGCUCGAGAACAUUUUCGGAUGCAGAGGAGGCAGGCUUCGGUGGCGCGAUAGCGCCAACGUCCUCAACAUCCAAUGCAUCCCACCACAUGAUGAUGCCUGAAGAGCCUUGGUUUUUUG [C31U C86A]", "polymerase ribozyme fitness (log ratio)": -5.09}
{"Ordered residues": "GACCAAUCUGCCCUCAGAGCUCGAGAACAUCUUCGGAUGCAGAGGAGGCAGGCUUCGGUGGCCCGAUAGCGCCAACGUCCUCAACCUCCAAUGCAUCCCACCACAUGAUGAUGCCCGAAGAGCCUUGGUUUUUUG [G63C U116C]", "polymerase ribozyme fitness (log ratio)": -1.29}
{"Ordered residues": "GACCAAUCUGGCCUCAGAGCUCGAGAACAUCUUCGGAUGCAGAGGAGGCAGGCUUCGGUGCCGCGAUAGCGCCAACGCCCUCAACCUCCAAUGCAUCCCACCACAUGAUGAUGCCUGAAGAGCCUAGGUUUUUUG [C11G G61C U78C U126A]", "polymerase ribozyme fitness (log ratio)": -4.7}
{"Ordered residues": "GACCAAUCUGCCCUCAGAGCUCGAGAACAUCUUCGGAUGCAGAGGAGGAAGGCUUCGGUGGGGCGAUAGCGCCAACGUCCUCAACCUCCAAUGCAUCCCACCACAUGAUGAUGCCUGAAGAGCCUUGGUUUUUUG [C49A C62G]", "polymerase ribozyme fitness (log ratio)": -2.22}
{"Ordered residues": "GACCAAUCUGCCCUCAGAGCUCGAGAACAUCUUCGGAUGCAGAGGAGGCAGGCUUCGGUGGCGCGAUAGCGCCAACGUCCUCAACCUCCAAUGCAUCCCACCACAUGAUGAUGCCUGUAUAGCCUUGGUUUUUUG [A118U G120U]", "polymerase ribozyme fitness (log ratio)": -0.245}
{"Ordered residues": "GACCAAUCUGCCCUCAGAGCUCGAGAACAUCUUCGGAUGCUGAGGAGGCAGGCUUCGGUGGCGCGAUAGCGGCAACGUCCUCAACCUCCCAUGCAUCCCACCACAUGAUGAUGCCUGAAGAGCCUUGGUUUUUUG [A41U C72G A90C]", "polymerase ribozyme fitness (log ratio)": -2.3}
{"Ordered residues": "GACCAAUCGGCGCUCAGAGCUCGAGAACAUCUUCGGAUGCAGAGGAGGCAGGCUUCGGUGGCGCGAUAGCGCCAACGUCCUCAACCUCCAAUGCAUCCCACCACAUGAUGAUGCCUGAAGAGCCUUGGUUUUUUG [U9G C12G]", "polymerase ribozyme fitness (log ratio)": 0.483}
{"Ordered residues": "GACCAAUCAGCCCUCAGAGCUCGAGAACAUCAUCGGUUGCAGAGGCGGCAGGCUUAGGUGGCGCGAUAGCGCCAACGUACUCAACCUCCAAUGCAUCCCACCACAUGAUGGUGCCUGAAGAGCCUUGGUUUUUUG [U9A U32A A37U A46C C56A C79A A111G]", "polymerase ribozyme fitness (log ratio)": -7.29}
{"Ordered residues": "GACCAAUCUGCCCUCAGAGCUCGAGAACAUCUUCAGAUGCAGAGGAGGCAGGCUUCGGUGGCGCGAUAUCGCCAACGUCCUCAACCUCCAAUGCAUCCCAGCACAUGAUGAUGCCUGAAGAGCCUUGGUUUUUUG [G35A G69U C101G]", "polymerase ribozyme fitness (log ratio)": -2.83}
{"Ordered residues": "GACCAAUCUUCCAUCAGAGCUCGAGAACAUCUUCGGAUGCAGAGGAGGCAGGCUUCGGUGGCGCGAUAGCGCCAACGUCCUCAACCUCCAAUGCAUCCCACCAUAUGAUGAUGCCUGAAGAGCCUUGGUUUUUUG [G10U C13A C104U]", "polymerase ribozyme fitness (log ratio)": -0.097}
{"Ordered residues": "GACUAAUCUGCCAUCAGAGCUCGAGUACAUCUUCGGAUGCAGAGGAGGCAGGCUGCGGUGGUGCGAUAGCGCCAACGUCCUCAACCUCCAAUGCAUCCCACCACAUGAUGAUGCCUGAAGAGCCUUGGUUUUUUG [C4U C13A A26U U55G C62U]", "polymerase ribozyme fitness (log ratio)": -4.16}
{"Ordered residues": "GACCAAUCUGCCCUCAGAGCUCGAGAACAUCUUCGGAUGCAGAGGAGGCAGGCUUCGGUGGCGCGAUAGCGCCAACGUCCUCAAGCUCCAAUGUAUUCCACCACAUGAUGAUGCCUGAACAGCCUUGGUUUUUUG [C85G C94U C97U G120C]", "polymerase ribozyme fitness (log ratio)": -0.74}
{"Ordered residues": "GACCAAUCUGCCUUCAGAGCUCGAGAACAUCUUCGGAUGCAGAGGACGCAGGCUUCGGUGGCGCGAUAGCGCCAACGCCCUCAACCUCCAAUGCAUCCCACCACAUGAGGAUGCCUGAAGAGCCUUGGUUUUUUG [C13U G47C U78C U109G]", "polymerase ribozyme fitness (log ratio)": -4.45}
{"Ordered residues": "GAACAAUGUGCAUUCAGAGGUCGAGAACAUCUUCCGAUGCAGAGGAGGCAGGCUUCGGUGGCGCGAUAGGGCCAACGUCCUCAACCUCCAAUGCAUCCCACCACAUGAUGAUGCCUGGAGAGCAUUGGUUUAUUG [C3A C8G C12A C13U C20G G35C C70G A118G C124A U132A]", "polymerase ribozyme fitness (log ratio)": -6.19}
{"Ordered residues": "GACCAAGCAGCCCUCAGAGCUCGAGAUCAUCUUCGGAUGCAGAGGAGGCAGGCUUCGGUGGCGCGAUAGCGUCAACGUCCUCAACCACCAAUGCAUCCCACCACAUGAUGAUGCCUGAAGAGCCUAGGUUUUUUG [U7G U9A A27U C72U U87A U126A]", "polymerase ribozyme fitness (log ratio)": -3.36}
